Measured Target: human JAK1 kinase domain (JH1) (Homo sapiens, UniProt P23458)
Construct: recombinantly generated catalytic kinase (also known as JH1) domain of human JAK1, JAK2, JAK3 and TYK2
Sequence (P23458 875-1153 limits assumed): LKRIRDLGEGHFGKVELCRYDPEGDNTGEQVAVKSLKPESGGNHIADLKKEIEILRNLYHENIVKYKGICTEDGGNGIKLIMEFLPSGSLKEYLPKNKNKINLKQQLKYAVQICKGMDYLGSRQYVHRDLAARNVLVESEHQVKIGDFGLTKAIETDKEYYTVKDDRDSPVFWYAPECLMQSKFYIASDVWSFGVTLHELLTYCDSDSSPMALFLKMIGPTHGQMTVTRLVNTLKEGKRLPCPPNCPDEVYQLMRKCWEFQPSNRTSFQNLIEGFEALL
Method: JH1 biochemical assay for JAK1 (ADP-Glo kinase assay, recombinant JH1 catalytic domain, JAK3-342 peptide, 35 μM ATP)
Assay Conditions: JAK1 JH1, ADP-Glo
pIC50: −log10 of the molar value. Counter-ions that a name gives are not always drawn.
Quick list: pIC50 per entry.

Recorded results for 3 molecules are shown here.
Molecule	Measured Target	pIC50
CC(C)n1cc(-n2nc(N3C[C@@H](C)[C@@](C#N)(C4CC4)C3=O)c3ccncc32)cn1	human JAK1 kinase domain (JH1) (Homo sapiens, UniProt P23458)	6.00 to 7.00
C[C@@H]1CN(c2nc(-c3cnn([C@H]4C[C@@](F)(C#N)C4)c3)cn3ncc(F)c23)C(=O)[C@]1(C#N)C1CC1	human JAK1 kinase domain (JH1) (Homo sapiens, UniProt P23458)	> 7.00
C[C@@H]1CN(c2nc(-c3cnn(-c4cccnc4)c3)cn3nccc23)C(=O)[C@]1(C#N)C1CC1	human JAK1 kinase domain (JH1) (Homo sapiens, UniProt P23458)	> 7.00

QUERY: Look up pIC50 with human JAK1 kinase domain (JH1) (Homo sapiens, UniProt P23458) for this molecule: C[C@@H]1CN(c2ccnn3cc(-c4cnn(C5CCN(C)C5)c4)cc23)C(=O)[C@]1(C#N)C1CC1 (some centres unmarked)
RESULT: 6.00 to 7.00

QUERY: API: value(readout= pIC50, system= human JAK1 kinase domain (JH1) (Homo sapiens, UniProt P23458), query= CO[C@H]1C[C@H](n2cc(-c3cn4ncc(F)c4c(N4C[C@@H](C)[C@@](C#N)(C5CC5)C4=O)n3)cn2)C1 )
RESULT: > 7.00

QUERY: Can you look up pIC50 on human JAK1 kinase domain (JH1) (Homo sapiens, UniProt P23458) for C[C@@H]1CN(c2nc(-c3ccc4c(cnn4C)c3)cn3nccc23)C(=O)[C@]1(C#N)C1CC1 [Example 225, trifluoroacetate] ?
RESULT: > 7.00

QUERY: Observed pIC50 on human JAK1 kinase domain (JH1) (Homo sapiens, UniProt P23458) for Cc1cc(-n2nc(N3C[C@@H](C)[C@@](C#N)(C4CC4)C3=O)c3ccncc32)ccn1 , please.
RESULT: 6.00 to 7.00

QUERY: For the record C[C@@H]1CN(c2nc(-c3cnn(-c4ccncc4)c3)cn3nccc23)C(=O)[C@]1(C#N)C1CC1 , what value of pIC50 is listed for human JAK1 kinase domain (JH1) (Homo sapiens, UniProt P23458)?
RESULT: > 7.00

QUERY: Entry Cc1ncc(-c2cn3nccc3c(N3C[C@@H](C)[C@@](C#N)(C4CC4)C3=O)n2)s1 , system human JAK1 kinase domain (JH1) (Homo sapiens, UniProt P23458): what pIC50 was measured?
RESULT: > 7.00

QUERY: Give the reported pIC50 for C[C@@H]1CN(c2nc(-c3cncc(Cl)c3)cn3nccc23)C(=O)[C@]1(C#N)C1CC1 [Example 248, trifluoroacetate] (system: human JAK1 kinase domain (JH1) (Homo sapiens, UniProt P23458)).
RESULT: 6.00 to 7.00

###

Measured pIC50 by item
Measured Target: human JAK1 kinase domain (JH1) (Homo sapiens)
Construct: recombinantly generated catalytic kinase (also known as JH1) domain of human JAK1, JAK2, JAK3 and TYK2
Method: JH1 biochemical assay for JAK1 (ADP-Glo kinase assay, recombinant JH1 catalytic domain, JAK3-342 peptide, 35 μM ATP)
Assay Conditions: JAK1 JH1, ADP-Glo
pIC50: −log10 of the molar value.

1. C[C@@H]1CN(c2cc(-c3cnn(C(F)F)c3)cc3ncsc23)C(=O)[C@]1(C#N)C1CC1 > 7.00
2. Cc1ncn(-c2cc3c(N4C[C@@H](C)[C@@](C#N)(C5CC5)C4=O)ccnn3c2)n1 5.30 to 6.00
3. Cc1cn(-c2cc3c(N4C[C@@H](C)[C@@](C#N)(C5CC5)C4=O)ccnn3c2)cn1 6.00 to 7.00

QUERY: What does the data say about its pIC50? Entry: Cc1ccc(-n2nc(N3C[C@@H](C)[C@@](C#N)(C4CC4)C3=O)c3ccncc32)cn1
RESULT: 5.30 to 6.00

QUERY: Look up pIC50: C[C@@H]1CN(c2ccnn3cc(-n4ccccc4=O)cc23)C(=O)[C@]1(C#N)C1CC1
RESULT: < 5.00

QUERY: Fill in: pIC50 of C[C@@H]1CN(c2nc(-c3cnn(C4CCOCC4)c3)cn3ncc(F)c23)C(=O)[C@]1(C#N)C1CC1 is ___
RESULT: > 7.00

QUERY: What does the data say about its pIC50? Entry: C[C@@H]1CN(c2nn(-c3cnn(C4COC4)c3)c3cnccc23)C(=O)[C@]1(C#N)C1CC1
RESULT: 6.00 to 7.00

###

A collection of compounds and their measured pIC50
Measured Target: JAK1 kinase activity on STAT3 in TF1 cells (Homo sapiens, UniProt P23458)
Sequence (P23458 whole entry): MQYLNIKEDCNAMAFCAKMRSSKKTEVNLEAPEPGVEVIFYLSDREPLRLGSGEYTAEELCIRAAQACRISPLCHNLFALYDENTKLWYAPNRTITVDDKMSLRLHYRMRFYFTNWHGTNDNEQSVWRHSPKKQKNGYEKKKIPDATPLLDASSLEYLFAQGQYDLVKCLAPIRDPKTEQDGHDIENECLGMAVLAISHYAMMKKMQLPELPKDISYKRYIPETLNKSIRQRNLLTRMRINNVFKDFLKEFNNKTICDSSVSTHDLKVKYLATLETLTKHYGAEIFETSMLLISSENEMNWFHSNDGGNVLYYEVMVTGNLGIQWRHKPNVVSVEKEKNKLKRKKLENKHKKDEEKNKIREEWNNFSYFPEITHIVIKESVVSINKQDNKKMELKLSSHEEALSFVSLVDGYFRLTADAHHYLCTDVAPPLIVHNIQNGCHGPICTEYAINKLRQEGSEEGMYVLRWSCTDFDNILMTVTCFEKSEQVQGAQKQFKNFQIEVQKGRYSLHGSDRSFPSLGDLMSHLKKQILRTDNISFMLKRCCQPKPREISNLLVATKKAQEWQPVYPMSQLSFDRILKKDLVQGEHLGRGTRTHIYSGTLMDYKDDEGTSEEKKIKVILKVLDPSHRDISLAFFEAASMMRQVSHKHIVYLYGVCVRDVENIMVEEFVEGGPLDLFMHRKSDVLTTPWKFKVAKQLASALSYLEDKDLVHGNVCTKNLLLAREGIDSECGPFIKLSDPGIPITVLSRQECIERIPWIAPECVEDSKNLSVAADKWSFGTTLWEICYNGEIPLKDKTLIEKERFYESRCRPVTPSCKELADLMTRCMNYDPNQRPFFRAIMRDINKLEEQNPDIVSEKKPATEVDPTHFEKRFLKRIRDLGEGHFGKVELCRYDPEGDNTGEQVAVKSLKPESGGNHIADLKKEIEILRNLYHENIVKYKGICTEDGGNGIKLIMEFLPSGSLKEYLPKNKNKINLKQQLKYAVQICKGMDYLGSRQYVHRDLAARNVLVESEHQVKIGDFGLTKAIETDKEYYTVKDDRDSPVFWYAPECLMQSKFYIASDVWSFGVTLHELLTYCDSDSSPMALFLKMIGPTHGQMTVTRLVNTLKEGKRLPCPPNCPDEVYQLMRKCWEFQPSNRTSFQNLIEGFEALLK
Method: pSTAT3 cell assay (MSD; TF1 cells, 30 ng/mL IL-6 stimulation)
Assay Conditions: 30 ng/mL IL-6, 15 minutes
pIC50: −log10 of the molar value. Structures can show the parent of a compound that is named as a salt.

Observe how each entry below is paired with its result.
Compound	Measurement Type	Endpoint Value
C[C@@H]1CN(c2ccnn3cc(-c4cn(C)nn4)cc23)C(=O)[C@]1(C#N)C1CC1 [Example 112, trifluoroacetate]	pIC50	< 5.00
C[C@@H]1CN(c2nc(-c3cnc4c(c3)CCN4)cn3nccc23)C(=O)[C@]1(C#N)C1CC1	pIC50	6.00 to 7.00

QUERY: Would you mind telling me what pIC50 value was observed for Cc1c(-c2cn3ncc(F)c3c(N3C[C@@H](C)[C@@](C#N)(C4CC4)C3=O)n2)cnn1C ?
RESULT: 5.30 to 6.00

QUERY: I would be grateful if you could share the reported pIC50 for C[C@@H]1CN(c2ccnn3cc(-c4cnn(C5CC5(F)F)c4)cc23)C(=O)[C@]1(C#N)C1CC1 (mixture of isomers) .
RESULT: 5.30 to 6.00

QUERY: Look up pIC50: C[C@@H]1CN(c2nc(-c3cnn(C4CC(C#N)C4)c3)cc3ncsc23)C(=O)[C@]1(C#N)C1CC1 (stereo partly shown)
RESULT: 6.00 to 7.00

QUERY: May I ask what pIC50 has been recorded for C[C@@H]1CN(c2ccnn3cc(-c4cncc(O)c4)cc23)C(=O)[C@]1(C#N)C1CC1 ?
RESULT: 5.00 to 5.30

QUERY: Can you share its pIC50? I mean this compound: Cn1cc(-c2cc3c(N4CC[C@@](C#N)(C5CC5)C4=O)ccnn3c2)cn1
RESULT: 5.30 to 6.00

###

Measured Target: human JAK2 kinase domain (JH1) (Homo sapiens, UniProt O60674)
Construct: recombinantly generated catalytic kinase (also known as JH1) domain of human JAK1, JAK2, JAK3 and TYK2
Sequence (O60674 849-1124 limits assumed): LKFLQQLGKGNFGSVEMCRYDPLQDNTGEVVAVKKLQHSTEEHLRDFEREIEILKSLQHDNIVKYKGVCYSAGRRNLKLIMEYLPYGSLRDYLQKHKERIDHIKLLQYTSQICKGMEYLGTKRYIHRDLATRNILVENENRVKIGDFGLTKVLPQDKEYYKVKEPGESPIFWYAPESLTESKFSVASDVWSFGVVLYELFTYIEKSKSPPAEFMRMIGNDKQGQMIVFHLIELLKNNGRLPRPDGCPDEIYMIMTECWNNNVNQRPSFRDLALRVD
Method: JH1 biochemical assay for JAK2 (ADP-Glo kinase assay, recombinant JH1 catalytic domain, JAK3-974 peptide, 15 μM ATP)
Assay Conditions: JAK2 JH1, ADP-Glo
Where a name gives a salt, the structure may show the parent alone.
Measurement Type: IC50

QUERY: human JAK2 kinase domain (JH1) (Homo sapiens, UniProt O60674) / IC50 / C[C@@H]1CN(c2ccnn3cc(-c4cnn(C5CCN(C)C5)c4)cc23)C(=O)[C@]1(C#N)C1CC1 (stereo partly shown) : value?
RESULT: 100 to 1000 nM

QUERY: Lab note: need IC50 with human JAK2 kinase domain (JH1) (Homo sapiens, UniProt O60674) for entry C[C@@H]1CN(c2cc(-c3cnn(C4COC4)c3)cc3ncsc23)C(=O)[C@]1(C#N)C1CC1 , please look it up.
RESULT: < 100 nM

QUERY: Which IC50 is reported with human JAK2 kinase domain (JH1) (Homo sapiens, UniProt O60674) for this entry: Cc1cc(-n2nc(N3C[C@@H](C)[C@@](C#N)(C4CC4)C3=O)c3ccncc32)ccn1 ?
RESULT: 1000 to 5000 nM

QUERY: Record C[C@@H]1CN(c2nc(-c3cnn(-c4cccnc4)c3)cn3nccc23)C(=O)[C@]1(C#N)C1CC1 : what is its IC50 with human JAK2 kinase domain (JH1) (Homo sapiens, UniProt O60674)?
RESULT: < 100 nM

QUERY: Value wanted: IC50 (human JAK2 kinase domain (JH1) (Homo sapiens, UniProt O60674)) of entry C[C@@H]1CN(c2nc(-c3cnn(CC(F)F)c3)cc3ncsc23)C(=O)[C@]1(C#N)C1CC1
RESULT: < 100 nM

QUERY: Reported IC50 for human JAK2 kinase domain (JH1) (Homo sapiens, UniProt O60674), given C[C@@H]1CN(c2nc(-c3cncnc3)cn3nccc23)C(=O)[C@]1(C#N)C1CC1 [Example 265, trifluoroacetate] ?
RESULT: 1000 to 5000 nM

QUERY: Param readout= IC50; system= human JAK2 kinase domain (JH1) (Homo sapiens, UniProt O60674); entry= C[C@@H]1CN(c2ccnn3cc(-n4cccn4)cc23)C(=O)[C@]1(C#N)C1CC1 ; returns value.
RESULT: 1000 to 5000 nM

QUERY: Identify the measured IC50 of C[C@@H]1CN(c2nc(-c3ccc(S(C)(=O)=O)nc3)cn3nccc23)C(=O)[C@]1(C#N)C1CC1 [Example 257, trifluoroacetate] for human JAK2 kinase domain (JH1) (Homo sapiens, UniProt O60674).
RESULT: 100 to 1000 nM
